- System: E. coli
- Experimental protocol: Synergy of adjuvant-MCD with Lev-MCD, growth inhibition zones in agar
- Format: cell-based, Escherichia coli
- Run conditions: E. coli; CLev 0.1 μg/mL; ±0.1
Exercise: for every item that follows, state its recorded ϕLev = (D/DLev)^2.

Enquiry: Need ϕLev = (D/DLev)^2, item C=CCc1cc2c(c(OC)c1OC)OCO2
Return: 1.3

Enquiry: What about CC1CCC(C(C)C)C(O)C1 (stereo not drawn) ?
Return: 1.7

Enquiry: Another: C=CCc1cc(OC)c(OC)c(OC)c1OC
Return: 1.1

Enquiry: Field entry: C=CCc1ccc(O)c(OC)c1
Return: 3.3

Enquiry: Next record, please: C=CCc1cc(OC)c2c(c1)OCO2
Return: 1.2

Enquiry: Follow-up entry: C=CCc1cc(OC)c2c(c1OC)OCO2
Return: 1.6
